# inhibition at 1 µM listing for each entry below
- study-system: hERG (Homo sapiens, UniProt Q12809)
- Sequence (Q12809 whole entry): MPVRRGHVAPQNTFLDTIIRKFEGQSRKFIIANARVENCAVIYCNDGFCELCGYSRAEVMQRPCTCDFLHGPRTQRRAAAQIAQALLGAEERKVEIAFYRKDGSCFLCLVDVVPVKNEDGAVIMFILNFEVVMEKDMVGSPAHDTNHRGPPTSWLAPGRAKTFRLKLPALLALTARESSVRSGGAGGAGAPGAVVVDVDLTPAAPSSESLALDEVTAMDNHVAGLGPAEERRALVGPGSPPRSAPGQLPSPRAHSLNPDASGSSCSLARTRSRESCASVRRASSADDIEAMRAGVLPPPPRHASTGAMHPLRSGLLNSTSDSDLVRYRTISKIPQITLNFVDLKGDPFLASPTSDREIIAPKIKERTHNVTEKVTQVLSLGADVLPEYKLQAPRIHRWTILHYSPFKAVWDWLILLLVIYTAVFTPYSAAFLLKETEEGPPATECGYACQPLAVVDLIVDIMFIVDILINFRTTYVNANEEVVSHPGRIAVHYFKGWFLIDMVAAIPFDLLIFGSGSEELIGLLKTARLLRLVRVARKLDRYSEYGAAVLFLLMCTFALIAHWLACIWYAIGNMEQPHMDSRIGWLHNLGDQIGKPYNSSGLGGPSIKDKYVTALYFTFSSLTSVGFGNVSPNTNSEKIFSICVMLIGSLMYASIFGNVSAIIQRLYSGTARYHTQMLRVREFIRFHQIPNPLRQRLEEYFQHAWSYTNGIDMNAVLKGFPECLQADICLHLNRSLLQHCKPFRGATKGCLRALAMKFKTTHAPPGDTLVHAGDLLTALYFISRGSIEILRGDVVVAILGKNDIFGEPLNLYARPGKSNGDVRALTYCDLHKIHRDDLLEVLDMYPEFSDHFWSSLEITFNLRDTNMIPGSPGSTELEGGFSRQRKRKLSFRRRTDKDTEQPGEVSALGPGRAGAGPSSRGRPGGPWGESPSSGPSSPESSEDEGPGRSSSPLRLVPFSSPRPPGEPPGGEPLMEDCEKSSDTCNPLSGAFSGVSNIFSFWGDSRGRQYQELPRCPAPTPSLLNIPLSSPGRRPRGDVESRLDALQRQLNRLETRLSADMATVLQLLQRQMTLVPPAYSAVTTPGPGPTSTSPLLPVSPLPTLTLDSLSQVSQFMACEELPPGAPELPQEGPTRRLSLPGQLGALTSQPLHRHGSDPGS
- protocol-details: Effects on hERG current (whole-cell clamping)
- test-conditions: human, HEK 293 cells that express hERG, pH 7.4, hERG inhibition rate (%) (1 μM), 1 μM; tail peak current; hERG-expressed HEK 293 cells
Where a name gives a salt, the structure may show the parent alone.
quantity-name: inhibition at 1 µM

1. Cc1c(C(=O)Nc2ccc(C3=CCC(N4CCOCC4)CC3)nc2)cnn1-c1ccc(C(F)(F)F)cn1 (stereo not shown) [Example E1, mesylate] :: 34.7%
2. Cc1c(C(=O)Nc2ccc([C@]3(C#N)CC[C@@H](O)CC3)nc2)cnn1-c1ccc(C(C)C)cc1 :: 17.8%
3. Cc1c(C(=O)Nc2ccc([C@]3(C#N)CC[C@@H](O)CC3)nc2)cnn1-c1ccc(F)cc1 :: 15.2%
4. Cc1c(C(=O)Nc2ccc([C@]3(C#N)CC[C@@H](O)CC3)nc2)cnn1-c1ccc(F)c(F)c1 :: 6.5%
5. Cc1cc(NC(=O)c2cnn(-c3ccc(C(F)(F)F)cc3)c2C)cnc1C1=CCOCC1 :: 10.7%
6. Cc1c(C(=O)Nc2cnc(C3=CCC(N4CCOCC4)CC3)c(C#N)c2)cnn1-c1ccc(C(F)(F)F)cn1 (stereo not shown) :: 44.1%
7. Cc1cc(NC(=O)c2cnn(-c3ncc(C(F)(F)F)cc3F)c2C)cnc1C1=CCC(N2CCOCC2)CC1 (stereo not shown) [Example D24, mesylate] :: 20.9%

====

- study-system: hERG (Homo sapiens)
- protocol-details: in vitro
- test-conditions: pH 7.4, hERG inhibition rate (%) (1 μM)
quantity-name: inhibition at 1 µM (%)

1. Cc1c(C(=O)Nc2ccc(C3(C#N)CCN([C@H]4CCO[C@H]4C)CC3)nc2)cnn1-c1ccc(C(F)(F)F)cc1 (relative stereo) [Example D11] :: 21
2. Cc1c(C(=O)Nc2ccc(C3(C#N)CCN(CC(C)(C)O)CC3)nc2)cnn1-c1ccc(C(F)(F)F)cn1 [Example D9] :: 42.1
3. Cc1c(C(=O)Nc2ccc(C3(C#N)CCN([C@H]4CCO[C@H]4C)CC3)nc2)cnn1-c1ccc(C2CC2)cn1 (relative stereo) [Example D10] :: 6.7
4. Cc1c(C(=O)Nc2ccc(C3(C#N)CCN(CC(C)(C)O)CC3)nc2)cnn1-c1ccc(Cl)cc1 [Example D116] :: 41.2
5. Cc1c(C(=O)Nc2ccc(C3(C#N)CCN(CC(C)(C)O)CC3)nc2)cnn1-c1ccc(C(F)(F)F)cc1 [Example D117] :: 35.6
6. Cc1c(C(=O)Nc2ccc(C3(C#N)CCN([C@H]4CCO[C@H]4C)CC3)nc2)cnn1-c1ccc(C(F)(F)F)cn1 (relative stereo) [Example D8] :: 15.8
7. Cc1c(C(=O)Nc2ccc(C3(C#N)CCN(CC(C)(C)O)CC3)nc2)cnn1-c1ccc(C2CC2)cn1 [Example D12] :: 29.2
8. Cc1c(C(=O)Nc2ccc(C3(C#N)CCN(C4CCOCC4)CC3)nc2)cnn1-c1ccc(C(F)(F)F)cc1 [Example E7] :: 21.1

====

- study-system: hERG (Homo sapiens)
- protocol-details: Effects on hERG current (whole-cell clamping)
- test-conditions: human, HEK 293 cells that express hERG, pH 7.4, hERG inhibition rate (%) (1 μM), 1 μM; tail peak current; hERG-expressed HEK 293 cells
Where a name gives a salt, the structure may show the parent alone.
quantity-name: inhibition at 1 µM (%)

1. Cc1cc(NC(=O)c2cnn(-c3ccc(C(F)(F)F)cc3)c2C)cnc1C1=CCC(O)CC1 (stereo not shown) :: 11.7
2. Cc1c(C(=O)Nc2ccc(C3(C#N)CCC(=O)CC3)nc2)cnn1-c1ccc(C(F)(F)F)cn1 [Example F2, hydrochloride] :: 22.4
3. Cc1ccc(-n2ncc(C(=O)Nc3ccc([C@]4(C#N)CC[C@@H](O)CC4)nc3)c2C)cc1 :: 4.4
4. Cc1c(C(=O)Nc2ccc([C@]3(C#N)CC[C@@](C)(O)CC3)nc2)cnn1-c1ccc(C(F)(F)F)cn1 :: 6.6
5. Cc1cc(NC(=O)c2cnn(-c3ccc(C(F)(F)F)cn3)c2C)cnc1C1CCN(S(=O)(=O)C(C)C)CC1 :: 29.5
6. Cc1c(C(=O)Nc2ccc(C3=CCC(N4CCOCC4)CC3)nc2)cnn1-c1ccc(C(F)(F)F)cc1 (stereo not shown) :: 16.5
7. Cc1cc(NC(=O)c2cnn(-c3ncc(C(F)(F)F)cc3Cl)c2C)cnc1C1=CCC(N2CCOCC2)CC1 (stereo not shown) :: 31.7

====

- study-system: UniProtKB Q12809
- protocol-details: Effects on hERG current (whole-cell clamping)
- test-conditions: human, HEK 293 cells that express hERG, pH 7.4, hERG inhibition rate (%) (1 μM), 1 μM; tail peak current; hERG-expressed HEK 293 cells
quantity-name: inhibition at 1 µM (%)

1. Cc1cc(NC(=O)c2cnn(-c3ncc(C(F)(F)F)cc3Cl)c2C)cnc1[C@H]1CC[C@H](O)CC1 [Example G32] :: 7.9
2. Cc1c(C(=O)Nc2ccc(C3(C#N)CCC(=O)CC3)nc2)cnn1-c1ccc(F)cc1 [Example F6] :: 6.8
3. Cc1cc(NC(=O)c2cnn(-c3ccc(C(F)(F)F)cn3)c2C)cnc1C1=CCC(C(C)(C)O)CC1 (stereo not drawn) [Example K31] :: 15.8
4. Cc1c(C(=O)Nc2ccc([C@]3(C#N)CC[C@]4(CCCO4)CC3)nc2)cnn1-c1ccc(C(F)(F)F)cn1 [Example D278] :: 13.6
5. Cc1c(C(=O)Nc2ccc([C@]3(C#N)CC[C@@H](O)CC3)nc2)cnn1-c1ccc(Cl)c(Cl)c1 [Example G8] :: 1.9
6. Cc1c(C(=O)Nc2ccc(C3(C#N)CCC(O)CC3)nc2)cnn1-c1ccc(C(F)(F)F)cn1 (stereo not drawn) [Example K6] :: 40
7. Cc1c(C(=O)Nc2ccc([C@]3(C#N)CC[C@@H](O)CC3)nc2)cnn1-c1ncc(C(F)(F)F)cc1Cl [Example J15] :: 8.2
8. Cc1c(C(=O)Nc2ccc(C3CCC(=O)CC3)nc2)cnn1-c1ccc(F)cc1F [Example E21] :: 8.3
9. Cc1c(C(=O)Nc2ccc(C3CCC(=O)CC3)nc2)cnn1-c1ccc(C(C)(C)C)cc1 [Example F26] :: 8.1
10. Cc1cc(NC(=O)c2cnn(-c3ccc(C(F)(F)F)cn3)c2C)cnc1C1=CCC(N(C)CCC(C)(C)C)CC1 (stereo not drawn) [Example K30] :: 79.6
11. COc1cc(C(F)(F)F)cnc1-n1ncc(C(=O)Nc2cnc([C@H]3CC[C@H](O)CC3)c(C)c2)c1C [Example G30] :: 3.2
12. CO[C@H]1CC[C@](C#N)(c2ccc(NC(=O)c3cnn(-c4ccc(C)cc4)c3C)cn2)CC1 [Example D18] :: 7.2
13. Cc1c(C(=O)Nc2ccc(C3CCC(O)CC3)nc2)cnn1-c1ccc(Cl)cc1 (stereo not drawn) [Example G9] :: 0.8
14. Cc1c(C(=O)Nc2ccc([C@H]3CC[C@H](N4CCOCC4)CC3)nc2)cnn1-c1ncc(C2CC2)cc1F [Example D65] :: 5.5
15. Cc1c(C(=O)Nc2ccc([C@]3(C#N)CC[C@@H](O)CC3)nc2)cnn1-c1ncc(C2CC2)cc1F [Example J17] :: 2.4

====

- study-system: UniProt Q12809
- protocol-details: Effects on hERG current (whole-cell clamping)
- test-conditions: human, HEK 293 cells that express hERG, pH 7.4, hERG inhibition rate (%) (1 μM), 1 μM; tail peak current; hERG-expressed HEK 293 cells
Counter-ions that a name gives are not always drawn.
quantity-name: inhibition at 1 µM (%)

1. Cc1c(C(=O)Nc2cnc(C3=CCC(N4CCOCC4)CC3)c(F)c2)cnn1-c1ccc(C(F)(F)F)cn1 (stereo not shown) :: 11.9
2. Cc1nc(-n2ncc(C(=O)Nc3ccc([C@]4(C#N)CC[C@@H](N5CCOCC5)CC4)nc3)c2C)ccc1C(F)(F)F :: 40.6
3. Cc1cc(NC(=O)c2cnn(-c3ccc(C(C)C)cn3)c2C)cnc1C1=CCC(N2CCOCC2)CC1 (stereo not shown) :: 47.6
4. Cc1c(C(=O)Nc2ccc(C3CCC4(CC3)OCCO4)nc2)cnn1-c1ccc(C(F)(F)F)cn1 :: 3.6
5. Cc1c(C(=O)Nc2cnc(C3=CCC(N(C)C(=O)C(C)(C)C)CC3)cn2)cnn1-c1ccc(C(F)(F)F)cn1 (stereo not shown) :: 2.3
6. CC[C@]1(O)CC[C@](C#N)(c2ccc(NC(=O)c3cnn(-c4ccc(C(F)(F)F)cn4)c3C)cn2)CC1 :: 8.9
7. Cc1c(C(=O)Nc2ccc(C3=CCC(C(C)(C)O)CC3)nc2)cnn1-c1ccc(C(F)(F)F)cn1 (stereo not shown) :: 11.3
8. Cc1c(C(=O)Nc2ccc(C3(C(=O)O)CCCCC3)nc2)cnn1-c1ccc(Cl)cc1 :: 17.2
9. Cc1cc(NC(=O)c2cnn(-c3ccc(C(F)(F)F)cn3)c2C)cnc1C1=CCC(N(C)C(=O)C(C)(C)C)CC1 (stereo not shown) :: 5.1
10. Cc1c(C(=O)Nc2ccc([C@]3(C#N)CC[C@@H](N4CCOCC4)CC3)nc2)cnn1-c1ncc(C(F)(F)F)cc1F :: 6.4
11. Cc1ccc(-n2ncc(C(=O)Nc3cnc(C4=CCC(N(C)C(=O)C(C)(C)C)CC4)c(C)c3)c2C)nc1 (stereo not shown) :: 7.5
12. Cc1cc(NC(=O)c2cnn(-c3ccc(C(F)(F)F)cn3)c2C)cnc1C1=CCN(C(=O)N2CCCC2)CC1 :: 31.5
13. Cc1cc(NC(=O)c2cnn(-c3ccc(C(F)(F)F)cn3)c2C)cnc1C1CCC2(CC1)OCCO2 :: 5
14. Cc1cc(NC(=O)c2cnn(-c3ncc(Cl)cc3F)c2C)cnc1C1=CCC(N2CCOCC2)CC1 (stereo not shown) :: 35.1
15. Cc1cc(NC(=O)c2cnn(-c3ccc(C(F)(F)F)cn3)c2C)cnc1C1=CCC(N(C)C(=O)OC(C)(C)C)CC1 (stereo not shown) :: 36.9
16. CC[C@]1(O)CC[C@](C#N)(c2ccc(NC(=O)c3cnn(-c4ccc(F)cc4)c3C)cn2)CC1 :: 8
17. Cc1cc(NC(=O)c2cnn(-c3ccc(F)cc3)c2C)cnc1C1=CCC(N(C)C(=O)C(C)C)CC1 (stereo not shown) :: 11.4
18. Cc1c(C(=O)Nc2ccc([C@]3(C#N)CC[C@@H](N4CCOCC4)CC3)nc2)cnn1-c1ccc(C(C)(C)C)cn1 :: 13.8
19. Cc1cc(NC(=O)c2cnn(-c3ccc(C4CC4)cn3)c2C)cnc1C1=CCN(C2CCOC2C)CC1 (stereo not shown) :: 47.6
20. Cc1c(C(=O)Nc2ccc([C@]3(C#N)CC[C@@H](N4CCOCC4)CC3)nc2)cnn1-c1ccc(C(C)(C)C)cc1 :: 43
21. Cc1c(C(=O)Nc2ccc([C@]3(C#N)CC[C@]4(C=CCO4)CC3)nc2)cnn1-c1ccc(C(F)(F)F)cn1 :: 0.5
22. Cc1c(C(=O)Nc2ccc([C@]3(O)CC[C@@H](N4CCOCC4)CC3)nc2)cnn1-c1ccc(C(F)(F)F)cn1 [Example E2] :: 24.4
23. Cc1cc(NC(=O)c2cnn(-c3ccc(C4CC4)cn3)c2C)cnc1[C@H]1CC[C@H](O)CC1 :: 10.8
24. Cc1cc(NC(=O)c2cnn(-c3ccc(C(F)(F)F)cn3)c2C)cnc1C1CCN(C(=O)C(F)(F)F)CC1 :: 22.8
25. Cc1c(C(=O)Nc2ccc([C@]3(C#N)CC[C@@H](N(C)C(=O)C(C)C)CC3)nc2)cnn1-c1ccc(C(F)(F)F)cn1 :: 11.6
26. Cc1c(C(=O)Nc2ccc([C@H]3CC[C@H](N4CCOCC4)CC3)nc2)cnn1-c1ccc(C(F)(F)F)cn1 [Example D6, mesylate] :: 24.5
27. CCc1ccc(-n2ncc(C(=O)Nc3ccc([C@]4(C#N)CC[C@@H](O)CC4)nc3)c2C)cc1 :: 18.1
28. Cc1cc(NC(=O)c2cnn(-c3ncc(C(F)(F)F)cc3F)c2C)cnc1[C@H]1CC[C@H](O)CC1 :: 6.7
